- System name: Tyrosine-protein phosphatase non-receptor type 11 (Homo sapiens, UniProt Q06124)
- Sequence (Q06124 whole entry): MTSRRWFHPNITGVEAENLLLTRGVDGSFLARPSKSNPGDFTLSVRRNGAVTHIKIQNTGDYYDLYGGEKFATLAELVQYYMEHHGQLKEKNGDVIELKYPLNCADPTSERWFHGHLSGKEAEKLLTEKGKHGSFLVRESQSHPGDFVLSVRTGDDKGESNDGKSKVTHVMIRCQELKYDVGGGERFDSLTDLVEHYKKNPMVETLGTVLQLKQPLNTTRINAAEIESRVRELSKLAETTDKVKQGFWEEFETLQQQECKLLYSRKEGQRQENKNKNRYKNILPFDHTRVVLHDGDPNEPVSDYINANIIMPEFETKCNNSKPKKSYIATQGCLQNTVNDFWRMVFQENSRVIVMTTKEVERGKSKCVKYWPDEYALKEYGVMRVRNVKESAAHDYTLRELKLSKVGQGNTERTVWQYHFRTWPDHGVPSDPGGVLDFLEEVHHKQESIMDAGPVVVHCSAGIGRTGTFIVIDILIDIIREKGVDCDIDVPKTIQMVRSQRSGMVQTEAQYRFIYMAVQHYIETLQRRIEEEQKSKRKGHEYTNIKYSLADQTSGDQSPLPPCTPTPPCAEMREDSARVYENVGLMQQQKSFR
- Experimental details: Inhibition of human SHP2 using pNPP substrate by spectrophotometry
Measured attribute: pIC50
# reply with the number alone; pIC50 is -log10 of concentration in mol/L

Dear colleague, I am looking for the recorded pIC50 of the following compound: O=C(O)c1cc2sc(Nc3cccc(Br)c3)nc2cc1O
4.30

* * *

- Experimental details: Non-competitive inhibition of Mycobacterium tuberculosis protein tyrosine phosphatase B expressed in Escherichia coli BL21/DE using pNPP substrate by spectrophotometry based Lineweaver-Burk plot analysis
Measured attribute: Ki (nM)
Report the value in nM with no unit label.

Please give the measured Ki for this molecule: O=C(O)c1cc2sc(Nc3cccc(Br)c3)nc2cc1O
1500
